Target: Disintegrin and metalloproteinase domain-containing protein 10 (Homo sapiens)
Assay: ADAM10 inhibitors, peptide cleavage, dose response, biochemical, QFRET (AID 743254)
Conditions: EDANS fluorescence, 3 h
Active and inactive are the calls of the source.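 The calls were made as follows: active = half-inhibition concentration IC50 of 10 µM or lower; inactive = IC50 above 10 µM.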
I would appreciate it if you answered using one of these outcomes: 1 (active), -1 (inactive)

# example entries with known answers
Cc1cc(C)c(CSc2ncc(-c3ccc([N+](=O)[O-])cc3)[nH]2)c(C)c1: -1
COc1ccc(C(Nc2cc(C)ccn2)c2ccc3ccc(C)nc3c2O)cc1 (stereo unspecified): 1
C=C(C)COc1ccc(-c2[nH]ncc2Oc2cccc(OC)c2)c(O)c1: 1
O=[N+]([O-])c1ccc(-c2nc(-c3cccs3)c(-c3cccs3)[nH]2)cc1: -1
CC(=O)c1ccc(N2CCC(c3cc(-c4ccc(Cl)cc4Cl)n[nH]3)CC2)c([N+](=O)[O-])c1: -1

// return assay outcome for C=C(C)COc1ccc(-c2[nH]ncc2Oc2ccc(OC)cc2)c(O)c1 1

// return assay outcome for O=C(NNC(=O)c1cc(-c2ccccc2)nc2ccccc12)Nc1cccc(Cl)c1 -1

// return assay outcome for O=[N+]([O-])c1cccnc1N1CCC(c2cc(-c3ccc(Cl)cc3)n[nH]2)CC1 1

// return assay outcome for Oc1ccc(Cl)cc1-c1cc(-c2cccc(Br)c2)n[nH]1 -1

// return assay outcome for O=C(Nc1ccc(N2CCCC2)c(S(=O)(=O)Nc2cccc(C(F)(F)F)c2)c1)c1cccs1 -1

// return assay outcome for CCOC(=O)c1c(CSc2ccc(C)cc2)oc2ccc(O)cc12 -1

---

Target: Disintegrin and metalloproteinase domain-containing protein 10 (Homo sapiens) (UniProt O14672)
Sequence (O14672 214-748 limits assumed): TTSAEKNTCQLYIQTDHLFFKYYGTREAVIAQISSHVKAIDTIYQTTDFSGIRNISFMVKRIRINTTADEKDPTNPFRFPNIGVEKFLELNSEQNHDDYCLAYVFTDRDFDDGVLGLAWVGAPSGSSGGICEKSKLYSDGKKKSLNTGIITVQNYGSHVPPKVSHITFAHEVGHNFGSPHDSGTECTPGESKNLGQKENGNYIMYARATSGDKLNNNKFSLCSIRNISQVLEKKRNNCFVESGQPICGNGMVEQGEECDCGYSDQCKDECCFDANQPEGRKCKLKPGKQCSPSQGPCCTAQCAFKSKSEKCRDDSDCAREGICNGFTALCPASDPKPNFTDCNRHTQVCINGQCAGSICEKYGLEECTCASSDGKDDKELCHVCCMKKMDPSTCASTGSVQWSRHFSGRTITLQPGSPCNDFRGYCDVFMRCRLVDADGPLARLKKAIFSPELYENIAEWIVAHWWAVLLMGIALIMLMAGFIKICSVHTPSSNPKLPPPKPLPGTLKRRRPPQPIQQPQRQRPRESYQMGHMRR
Test: ADAM10 inhibitors, peptide cleavage, dose response, biochemical, QFRET (AID 743254)
Conditions: EDANS fluorescence, 3 h
Activity calls are given as the source filed them.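 How the source made its calls: active means half-inhibition concentration IC50 of 10 µM or lower; inactive means IC50 above 10 µM.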
I would appreciate it if you answered using one of these outcomes: active, inactive

# example entries with known answers
O=C1OCCN1C(=O)[C@H]1[C@H](c2ccc([N+](=O)[O-])cc2)C(c2ccc(F)cc2)=NN1c1ccc(Br)cc1: inactive
O=C(Nc1ccc(OCC(F)(F)C(F)F)c(C(F)(F)F)c1)c1ccc(Cl)cc1: active
N#Cc1c(Cl)nc(N/N=C/c2ccccc2)c(Cl)c1Cl: inactive
Cc1cccc(C)c1OCC(O)Cn1c2ccccc2c2ccccc21 (stereo not given): inactive

Shift focus to the following entry.
// return assay outcome for CCc1ccc(NC(=O)c2ccc(F)c(S(=O)(=O)NCC3COc4ccccc4O3)c2)cc1 (stereo not given) inactive

---

Biological target: Disintegrin and metalloproteinase domain-containing protein 10 (Homo sapiens)
Assay: ADAM10 inhibitors, peptide cleavage, dose response, biochemical, QFRET (AID 743254)
Conditions: EDANS fluorescence, 3 h
Activity calls are given as the source filed them.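 Rule for the calls: active = half-inhibition concentration IC50 of 10 µM or lower; inactive = IC50 above 10 µM.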
Endpoint: IC50

Examples from the recorded data:
Fc1c(F)c(C(F)(F)F)c(F)c(F)c1N/N=C\c1cccs1: > 69.5 µM (inactive)
COc1ccc(-c2ccc(-c3noc(-c4cccc(OC)c4)n3)c(OC)n2)cc1: > 69.5 µM (inactive)
O=C1OCCN1C(=O)[C@H]1[C@H](c2ccc([N+](=O)[O-])cc2)C(c2cccc(Cl)c2)=NN1c1ccc(Br)cc1: inactive
COc1ccc(S(=O)(=O)Nc2cc3c4c(oc3c3ccccc23)CC(C)(C)CC4=O)cc1: > 69.5 µM (inactive)

# IC50 lookup, item O=[N+]([O-])c1cc(S(=O)(=O)Nc2ccccc2)ccc1N1CCN(c2ccccc2)CC1 inactive

---

Target: Disintegrin and metalloproteinase domain-containing protein 10 (Homo sapiens) (UniProt O14672)
Assay: ADAM10 inhibitors, peptide cleavage, dose response, biochemical, QFRET (AID 743254)
Details: EDANS fluorescence, 3 h
Calls of active or inactive are those of the source.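 The calls were made as follows: active = half-inhibition concentration IC50 of 10 µM or lower; inactive = IC50 above 10 µM.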
I would appreciate it if you answered using one of these outcomes: active, inactive

C(=C\c1ccccc1)/C=N/Nc1nc2ccccc2s1: inactive
CCCN(CC(=O)Nc1cc(Cl)cc(Cl)c1)CC(=O)Nc1ccc(F)c(F)c1F: inactive
O=[N+]([O-])c1ccc(S(=O)(=O)Nc2ccc(-c3csc(-c4ccccc4)n3)cc2)cc1: inactive
O=C(NNC(=O)c1cc(-c2ccc(Cl)cc2)nc2ccccc12)c1csc(N2CCOCC2)n1: inactive
COc1cc(/C=N/O)cc(Br)c1OCc1ccc(Cl)cc1: inactive

// return assay outcome for O=C(NNc1ccccc1Br)C(O)(c1cccc(C(F)(F)F)c1)c1cccc(C(F)(F)F)c1 inactive

// return assay outcome for Cc1ccc(NS(=O)(=O)c2ccc(Cl)c(NC(=S)NC(=O)C3CCCCC3)c2)cc1Cl inactive

// return assay outcome for COc1ccc(-c2cn[nH]c2-c2ccc(OCc3ccccc3)cc2O)cc1 active

// return assay outcome for O=C(Nc1cccc(S(=O)(=O)Nc2ccc(Cl)cc2)c1)c1cc2c(s1)CCCC2 inactive

// return assay outcome for O=C1CC(N(CCc2ccccc2)C(=S)Nc2cc(Cl)ccc2Cl)C(=O)N1c1c(Cl)cccc1Cl (stereo not given) inactive

---

Target: Disintegrin and metalloproteinase domain-containing protein 10 (Homo sapiens)
Test: ADAM10 inhibitors, peptide cleavage, dose response, biochemical, QFRET (AID 743254)
Settings: EDANS fluorescence, 3 h
Active and inactive are the calls of the source.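 Rule for the calls: active = half-inhibition concentration IC50 of 10 µM or lower; inactive = IC50 above 10 µM.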
Endpoint: IC50

COc1ccc(CCN2C(=O)c3[nH]nc(-c4ccccc4O)c3C2c2cccc(Cl)c2)cc1 (centres undefined): inactive
O=[N+]([O-])c1ccc(O)c(/C=N/Nc2ccccn2)c1: inactive
COC(=O)c1ccc(N2CCC(c3cc(-c4ccc(OC)cc4)n[nH]3)CC2)c([N+](=O)[O-])c1: > 69.5 µM (inactive)
O=C(OCc1csc(Nc2ccccc2)n1)c1ccc(Cl)cc1: inactive

Ref: PubChem BioAssay AID743254
